Provenance of the data: the supplement of paper PMC3545927

target: furin, P09958; assay: furin cleavage Z-score vs untreated control; higher = more cleavage, active = 3.5 or more, inactive = 1 or less, 8 variable residues between constant flanks; conditions: 7.5 min;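 also: purified furin at 1:10 enzyme:substrate in 50 mM HEPES pH 7.5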
Sequence (P09958 whole entry): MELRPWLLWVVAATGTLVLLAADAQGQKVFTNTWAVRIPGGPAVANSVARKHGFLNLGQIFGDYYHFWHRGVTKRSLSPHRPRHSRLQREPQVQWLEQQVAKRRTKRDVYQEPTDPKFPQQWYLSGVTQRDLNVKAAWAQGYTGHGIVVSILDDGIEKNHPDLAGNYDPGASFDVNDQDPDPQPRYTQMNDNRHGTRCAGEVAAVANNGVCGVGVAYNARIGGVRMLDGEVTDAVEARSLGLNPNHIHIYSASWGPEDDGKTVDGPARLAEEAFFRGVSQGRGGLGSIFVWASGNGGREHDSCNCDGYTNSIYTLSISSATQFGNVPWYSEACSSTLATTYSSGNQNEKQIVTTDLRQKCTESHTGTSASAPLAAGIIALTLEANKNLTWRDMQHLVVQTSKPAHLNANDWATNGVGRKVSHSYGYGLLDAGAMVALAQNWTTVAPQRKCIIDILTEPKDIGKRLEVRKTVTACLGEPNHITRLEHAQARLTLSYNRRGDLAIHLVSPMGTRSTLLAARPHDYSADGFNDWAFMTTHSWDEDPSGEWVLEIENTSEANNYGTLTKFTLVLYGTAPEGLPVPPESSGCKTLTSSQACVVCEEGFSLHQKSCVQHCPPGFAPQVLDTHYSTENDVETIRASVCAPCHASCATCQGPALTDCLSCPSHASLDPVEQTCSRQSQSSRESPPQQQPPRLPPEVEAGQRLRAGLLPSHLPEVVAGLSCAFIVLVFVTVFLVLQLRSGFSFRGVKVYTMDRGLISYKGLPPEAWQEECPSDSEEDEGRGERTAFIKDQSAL
The other results are listed elsewhere or left out. The hit rate among all sequences tested is not known here.
// allowed return values: active, inactive

Observe how each entry below is paired with its result.
* CAITTGSPITAGNASASA [HC803] | inactive
* CADPRRRSRNAGNASASA [HC216] | active
* CAAARALAHGAGNASASA [HC234] | inactive

INPUT: Fill in: this test's call for CARYISWCLWAGNASASA [HC579] is ___
OUTPUT: inactive

INPUT: Fill in: this test's call for CALGGRRKRNAGNASASA [FS-1356] is ___
OUTPUT: active

INPUT: Fill in: this test's call for CAETPCSGSWAGNASASA [HC1832] is ___
OUTPUT: inactive

INPUT: Fill in: this test's call for CALINVRKRNAGNASASA [FS-1357] is ___
OUTPUT: inactive
